target: UniProt:P11712; assay: Inhibition of CYP2C9 (unknown origin) coincubated with substrate; format: ADME
Examples of compounds with documented IC50 follow.

[[record]]
test_smiles = "CC(C)OC(=O)N1CCN(c2ccc(NC(=O)c3oc(N4CCCCC4)nc3C(F)(F)F)cn2)CC1"
property = "IC50"
result = "> 20 µM"


Now for another entry.
-- ask Looking for the measured IC50 of O=C(Nc1ccc(N2CCN(C(=O)Nc3ccccc3Cl)CC2)nc1)c1oc(N2CCCCC2)nc1C(F)(F)F , can you help?
-- reply 6.4 µM

###

Examples of compounds with documented solubility follow.
assay: Solubility of the compound; format: physicochemical
Please respond with the number in µM and leave the unit unwritten.

[[record]]
test_smiles = "CC(C)OC(=O)N1CCN(c2ccc(NC(=O)c3oc(N4CCCCC4)nc3C(F)(F)F)cn2)CC1"
numeric_value = 100


-- ask Looking for the measured solubility of O=C(Nc1ccc(N2CCN(C(=O)Nc3ccccc3Cl)CC2)nc1)c1oc(N2CCCCC2)nc1C(F)(F)F , can you help?
-- reply 10

###

molecular target: Cytochrome P450 2C9 (Homo sapiens, UniProt P11712); experiment: Inhibition of CYP2C9 (unknown origin) preincubated prior to substrate addition; assay type: ADME
Sequence (P11712 whole entry): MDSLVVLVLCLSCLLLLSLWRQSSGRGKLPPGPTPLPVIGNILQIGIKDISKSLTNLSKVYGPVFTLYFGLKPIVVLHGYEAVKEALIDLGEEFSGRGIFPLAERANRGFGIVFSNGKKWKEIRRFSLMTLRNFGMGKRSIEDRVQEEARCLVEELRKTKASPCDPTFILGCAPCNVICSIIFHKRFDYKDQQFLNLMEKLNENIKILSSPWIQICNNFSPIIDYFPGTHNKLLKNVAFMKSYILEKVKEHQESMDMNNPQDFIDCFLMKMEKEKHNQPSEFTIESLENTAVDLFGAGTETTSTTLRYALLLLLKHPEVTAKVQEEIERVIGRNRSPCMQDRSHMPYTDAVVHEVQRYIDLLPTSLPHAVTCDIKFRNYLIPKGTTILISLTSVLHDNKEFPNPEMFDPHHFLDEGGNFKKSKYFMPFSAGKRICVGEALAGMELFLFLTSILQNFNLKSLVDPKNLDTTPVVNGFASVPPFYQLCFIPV
Examples of compounds with documented IC50 follow.

[[record]]
test_smiles = "O=C(Nc1ccc(N2CCN(C(=O)Nc3ccccc3Cl)CC2)nc1)c1oc(N2CCCCC2)nc1C(F)(F)F"
result = "9.7 µM"


Now for another entry.
-- ask Looking for the measured IC50 of CC(C)OC(=O)N1CCN(c2ccc(NC(=O)c3oc(N4CCCCC4)nc3C(F)(F)F)cn2)CC1 , can you help?
-- reply > 20 µM

###

Examples of compounds with documented AUC follow.
test: AUC in po dosed rat; assay type: ADME, organism-based; settings: plasma
Please respond with the number in µM·h and leave the unit unwritten.

Worked set:
[[record]]
test_smiles = "CC(C)OC(=O)N1CCN(c2ccc(NC(=O)c3oc(N4CCCCC4)nc3C(F)(F)F)cn2)CC1"
property = "AUC"
numeric_value = 69

[[record]]
test_smiles = "O=C(Nc1ccc(N2CCN(C(=O)Nc3ccccc3Cl)CC2)nc1)c1oc(N2CCCCC2)nc1C(F)(F)F"
property = "AUC"
numeric_value = 25


Now for another entry.
-- ask Looking for the measured AUC of COCCN(C)c1ccc(NC(=O)c2oc(-c3ccccc3)nc2C(F)(F)F)cn1 , can you help?
-- reply 12.7

###

test: Plasma protein binding (unknown origin); assay type: ADME, cell-free; details: read-out: PPB (converted)
Property: fraction unbound
Reply with just the number.

[[record]]
test_smiles = "CC(C)OC(=O)N1CCN(c2ccc(NC(=O)c3oc(N4CCCCC4)nc3C(F)(F)F)cn2)CC1"
numeric_value = 0.004


Now for another entry.
-- ask Looking for the measured fraction unbound of O=C(Nc1ccc(N2CCN(C(=O)Nc3ccccc3Cl)CC2)nc1)c1oc(N2CCCCC2)nc1C(F)(F)F , can you help?
-- reply 0.001

###

target: Cytochrome P450 3A4 (Homo sapiens, UniProt P08684); assay: Inhibition of CYP3A4 (unknown origin) preincubated prior to substrate addition; type: ADME
Sequence (P08684 whole entry): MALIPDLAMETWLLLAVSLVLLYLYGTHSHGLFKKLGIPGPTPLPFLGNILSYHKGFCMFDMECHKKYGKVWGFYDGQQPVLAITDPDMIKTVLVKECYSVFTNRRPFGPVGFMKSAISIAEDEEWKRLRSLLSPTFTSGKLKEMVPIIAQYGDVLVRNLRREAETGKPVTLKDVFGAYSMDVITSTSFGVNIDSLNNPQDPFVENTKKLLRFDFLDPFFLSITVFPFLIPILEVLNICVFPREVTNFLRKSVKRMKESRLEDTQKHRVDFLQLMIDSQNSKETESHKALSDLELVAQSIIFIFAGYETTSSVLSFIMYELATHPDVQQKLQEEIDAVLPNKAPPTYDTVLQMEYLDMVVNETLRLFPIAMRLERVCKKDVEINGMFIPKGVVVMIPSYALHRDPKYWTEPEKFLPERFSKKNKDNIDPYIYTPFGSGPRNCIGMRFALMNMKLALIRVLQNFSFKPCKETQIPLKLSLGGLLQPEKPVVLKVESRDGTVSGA
Property: pIC50
Field pIC50 (float): negative decimal logarithm of the concentration in molar.

-- ask Looking for the measured pIC50 of O=C(Nc1ccc(N2CCN(C(=O)Nc3ccccc3Cl)CC2)nc1)c1oc(N2CCCCC2)nc1C(F)(F)F , can you help?
-- reply 5.30

Data provenance is ChEMBL document CHEMBL2440008.
